- procedure.summary: Hygroscopic behavior test by dynamic vapor sorption (DVS)
- Type: physicochemical
- experimental.conditions: relative humidity 30.0 %, 25° C., DVS
Counter-ions that a name gives are not always drawn.
endpoint.label: Hygroscopic weight gain % (%)
Form entry: value (%) — number only.

Some solved entries appear below for comparison.
> print(dat)
                                   compound             endpoint.label  endpoint.value
1  Cc1nc(NC(=O)N2CCC(C)(C)C2=O)ccc1Oc1ccnc(-c2cnn(C)c2)c1 [Hydrochloride crystalline form I]  Hygroscopic weight gain %            0.34
2  Cc1nc(NC(=O)N2CCC(C)(C)C2=O)ccc1Oc1ccnc(-c2cnn(C)c2)c1 [Phosphate crystalline form I]  Hygroscopic weight gain %            2.32
3  Cc1nc(NC(=O)N2CCC(C)(C)C2=O)ccc1Oc1ccnc(-c2cnn(C)c2)c1 [Tartrate crystalline form I]  Hygroscopic weight gain %            2.42

Query compound follows.
For the compound Cc1nc(NC(=O)N2CCC(C)(C)C2=O)ccc1Oc1ccnc(-c2cnn(C)c2)c1 [Methanesulfonate crystalline form II] , report Hygroscopic weight gain %.
0.20

----------
- procedure.summary: Hygroscopic behavior test by dynamic vapor sorption (DVS)
- Format: physicochemical
- experimental.conditions: relative humidity 70.0 %, 25° C., DVS
Structures can show the parent of a compound that is named as a salt.
endpoint.label: Hygroscopic weight gain % (%)
Form entry: value (%) — number only.

> print(dat)
                                   molecule  endpoint.value
1  Cc1nc(NC(=O)N2CCC(C)(C)C2=O)ccc1Oc1ccnc(-c2cnn(C)c2)c1 [Tartrate crystalline form I]            4.44
2  Cc1nc(NC(=O)N2CCC(C)(C)C2=O)ccc1Oc1ccnc(-c2cnn(C)c2)c1 [Hydrochloride crystalline form I]            0.81
3  Cc1nc(NC(=O)N2CCC(C)(C)C2=O)ccc1Oc1ccnc(-c2cnn(C)c2)c1 [Methanesulfonate crystalline form II]            8.93

For the molecule Cc1nc(NC(=O)N2CCC(C)(C)C2=O)ccc1Oc1ccnc(-c2cnn(C)c2)c1 [Phosphate crystalline form I] , report Hygroscopic weight gain %.
4.66

----------
- procedure.summary: Hygroscopic behavior test by dynamic vapor sorption (DVS)
- Type: physicochemical
- experimental.conditions: relative humidity 10.0 %, 25° C., DVS
Where a name gives a salt, the structure may show the parent alone.
Quick list: Hygroscopic weight gain % per entry.

Some solved entries appear below for comparison.
> print(dat)
                                   compound             endpoint.label  endpoint.value
1  Cc1nc(NC(=O)N2CCC(C)(C)C2=O)ccc1Oc1ccnc(-c2cnn(C)c2)c1 [Hydrochloride crystalline form I]  Hygroscopic weight gain %           0.13%
2  Cc1nc(NC(=O)N2CCC(C)(C)C2=O)ccc1Oc1ccnc(-c2cnn(C)c2)c1 [Tartrate crystalline form I]  Hygroscopic weight gain %           0.83%
3  Cc1nc(NC(=O)N2CCC(C)(C)C2=O)ccc1Oc1ccnc(-c2cnn(C)c2)c1 [Phosphate crystalline form I]  Hygroscopic weight gain %           1.19%

Query compound follows.
For the compound Cc1nc(NC(=O)N2CCC(C)(C)C2=O)ccc1Oc1ccnc(-c2cnn(C)c2)c1 [Methanesulfonate crystalline form II] , report Hygroscopic weight gain %.
0.11%

----------
- procedure.summary: Hygroscopic behavior test by dynamic vapor sorption (DVS)
- Format: physicochemical
- experimental.conditions: relative humidity 0.0 %, 25° C., DVS
Structures can show the parent of a compound that is named as a salt.
Quick list: Hygroscopic weight gain % per entry.
Field note: include the unit after the figure.

Some solved entries appear below for comparison.
> print(dat)
                                   molecule  endpoint.value
1  Cc1nc(NC(=O)N2CCC(C)(C)C2=O)ccc1Oc1ccnc(-c2cnn(C)c2)c1 [Phosphate crystalline form I]           0.02%
2  Cc1nc(NC(=O)N2CCC(C)(C)C2=O)ccc1Oc1ccnc(-c2cnn(C)c2)c1 [Methanesulfonate crystalline form II]           0.00%
3  Cc1nc(NC(=O)N2CCC(C)(C)C2=O)ccc1Oc1ccnc(-c2cnn(C)c2)c1 [Hydrochloride crystalline form I]           0.00%

Query molecule follows.
For the molecule Cc1nc(NC(=O)N2CCC(C)(C)C2=O)ccc1Oc1ccnc(-c2cnn(C)c2)c1 [Tartrate crystalline form I] , report Hygroscopic weight gain %.
0.00%

----------
- procedure.summary: Hygroscopic behavior test by dynamic vapor sorption (DVS)
- Format: physicochemical
- experimental.conditions: relative humidity 40.0 %, 25° C., DVS
Structures can show the parent of a compound that is named as a salt.
Quick list: Hygroscopic weight gain % per entry.
Form entry: value (%) — number only.

Some solved entries appear below for comparison.
> print(dat)
                                   compound  endpoint.value
1  Cc1nc(NC(=O)N2CCC(C)(C)C2=O)ccc1Oc1ccnc(-c2cnn(C)c2)c1 [Hydrochloride crystalline form I]            0.42
2  Cc1nc(NC(=O)N2CCC(C)(C)C2=O)ccc1Oc1ccnc(-c2cnn(C)c2)c1 [Tartrate crystalline form I]            2.88

For the compound Cc1nc(NC(=O)N2CCC(C)(C)C2=O)ccc1Oc1ccnc(-c2cnn(C)c2)c1 [Methanesulfonate crystalline form II] , report Hygroscopic weight gain %.
0.24

For the compound Cc1nc(NC(=O)N2CCC(C)(C)C2=O)ccc1Oc1ccnc(-c2cnn(C)c2)c1 [Phosphate crystalline form I] , report Hygroscopic weight gain %.
2.78

----------
- procedure.summary: Solubility determination in deionized water
- Type: physicochemical
- experimental.conditions: ultrasonication, stepwise addition of water
Where a name gives a salt, the structure may show the parent alone.
endpoint.label: Solubility S

> print(dat)
                                   compound  endpoint.label  endpoint.value
1  Cc1nc(NC(=O)N2CCC(C)(C)C2=O)ccc1Oc1ccnc(-c2cnn(C)c2)c1 [Sulfate crystalline form I]    Solubility S    S > 20 mg/mL
2  Cc1nc(NC(=O)N2CCC(C)(C)C2=O)ccc1Oc1ccnc(-c2cnn(C)c2)c1 [Hydrochloride crystalline form I]    Solubility S    S > 20 mg/mL
3  Cc1nc(NC(=O)N2CCC(C)(C)C2=O)ccc1Oc1ccnc(-c2cnn(C)c2)c1 [Citrate crystalline form I]    Solubility S    S > 20 mg/mL

----------
- procedure.summary: Hygroscopic behavior test by dynamic vapor sorption (DVS)
- Format: physicochemical
- experimental.conditions: relative humidity 60.0 %, 25° C., DVS
- Description: The experimental method of characterizing the crystalline acidic salts of the compound of formula (I) using dynamic vapor sorption (DVS) is as follows: a small amount of crystalline acidic salt powder of the compound of formula (I) was placed in a precision sample pan that came with the instrument; after the sample was loaded, the aluminum pan was sent into the instrument for analysis. […]
Where a name gives a salt, the structure may show the parent alone.
endpoint.label: Hygroscopic weight gain % (%)
Form entry: value (%) — number only.

Some solved entries appear below for comparison.
> print(dat)
                                   molecule  endpoint.value
1  Cc1nc(NC(=O)N2CCC(C)(C)C2=O)ccc1Oc1ccnc(-c2cnn(C)c2)c1 [Tartrate crystalline form I]            3.77
2  Cc1nc(NC(=O)N2CCC(C)(C)C2=O)ccc1Oc1ccnc(-c2cnn(C)c2)c1 [Methanesulfonate crystalline form II]            0.88
3  Cc1nc(NC(=O)N2CCC(C)(C)C2=O)ccc1Oc1ccnc(-c2cnn(C)c2)c1 [Hydrochloride crystalline form I]            0.63

Query molecule follows.
For the molecule Cc1nc(NC(=O)N2CCC(C)(C)C2=O)ccc1Oc1ccnc(-c2cnn(C)c2)c1 [Phosphate crystalline form I] , report Hygroscopic weight gain %.
3.97

----------
- procedure.summary: Hygroscopic behavior test by dynamic vapor sorption (DVS)
- Type: physicochemical
- experimental.conditions: relative humidity 80.0 %, 25° C., DVS
Where a name gives a salt, the structure may show the parent alone.
Quick list: Hygroscopic weight gain % per entry.
Form entry: value (%) — number only.

Some solved entries appear below for comparison.
> print(dat)
                                   compound             endpoint.label  units.symbol  endpoint.value
1  Cc1nc(NC(=O)N2CCC(C)(C)C2=O)ccc1Oc1ccnc(-c2cnn(C)c2)c1 [Methanesulfonate crystalline form II]  Hygroscopic weight gain %             %           12.44
2  Cc1nc(NC(=O)N2CCC(C)(C)C2=O)ccc1Oc1ccnc(-c2cnn(C)c2)c1 [Tartrate crystalline form I]  Hygroscopic weight gain %             %            5.17
3  Cc1nc(NC(=O)N2CCC(C)(C)C2=O)ccc1Oc1ccnc(-c2cnn(C)c2)c1 [Hydrochloride crystalline form I]  Hygroscopic weight gain %             %            1.37

For the compound Cc1nc(NC(=O)N2CCC(C)(C)C2=O)ccc1Oc1ccnc(-c2cnn(C)c2)c1 [Phosphate crystalline form I] , report Hygroscopic weight gain %.
5.46

The reported numbers originate from patent US20240317710A1.
